# Tested on: SF-268 CNS
# test method notes: NCI-60 one-dose screen, 48 h (100 = growth as untreated, 0 = no growth, -100 = all killed)
# measurement setup: 10 µM unless noted
This is part of a sample that, as a whole, favours compounds with a hit. Of some 83,000 tested, about 20% had one in any assay.
readout label: growth (%)
Give bare numbers, in %.

Below, each entry is followed by its recorded growth result.
[
  {
    "compound": "Oc1ccc(O)c(-c2ccccc2)c1",
    "target entity": "SF-268 CNS",
    "measured number": 53.7
  },
  {
    "compound": "CN1C2C=CC(=O)C1C1C(=O)N(c3ccccc3)C(=O)C12 (stereo unspecified)",
    "target entity": "SF-268 CNS",
    "measured number": 74.1
  },
  {
    "compound": "CSc1nc(N)c(N)c(N)n1",
    "target entity": "SF-268 CNS",
    "measured number": 107
  },
  {
    "compound": "O=C(c1ccccc1)C1(Br)CCCCC1",
    "target entity": "SF-268 CNS",
    "measured number": 92
  },
  {
    "compound": "O=C(NC(=O)c1ccc(F)c(Cl)c1)NC1CC1",
    "target entity": "SF-268 CNS",
    "measured number": 103
  },
  {
    "compound": "COC(=O)c1ccccc1Cl",
    "target entity": "SF-268 CNS",
    "measured number": 98.9
  }
]

Here are 3 compounds. What values of growth were reported for them?
1. C=CCN1C(=O)c2ccccc2C1=O
2. Cc1cc2ccccc2c2cc3ccccc3cc12
3. CC(=O)Oc1cc(C)c(OC(C)=O)c(C)c1C

1: 106; 2: 100; 3: 107

Here are 5 compounds. What values of growth were reported for them?
1. OCc1ccccc1F
2. OC1CCCN(Cc2ccccc2)C1 (stereo unspecified)
3. Nc1ccc(Cl)c(S(=O)(=O)O)c1
4. COc1ccc(CCO)cc1
5. Clc1ccc2c(c1)N(C1CCCN(Cc3ccccc3)C1)c1ccccc1S2 (stereo unspecified)

95.8
102
102
105
39.2

Here are 2 compounds. What values of growth were reported for them?
1. C/C=C(/C(=O)NC(N)=O)C(C)C
2. COc1ccc(/C=N/Nc2nc3ccccc3s2)cc1

87.2
106

----------
# System: NCI/ADR-RES ovarian
# test method notes: NCI-60 one-dose screen, 48 h (100 = growth as untreated, 0 = no growth, -100 = all killed)
# measurement setup: 10 µM unless noted
Compounds without any hit were thinned out: in the full panel of roughly 83,000, 20% have a hit.
readout label: growth (%)
Give bare numbers, in %.

Below, each entry is followed by its recorded growth result.
[
  {
    "compound": "NNc1ncnc2cccc(Cl)c12",
    "target entity": "NCI/ADR-RES ovarian",
    "unit descriptor": "%",
    "growth": 102
  },
  {
    "compound": "O=[N+]([O-])c1ccc(NC(c2ccccc2)c2ccc3cccnc3c2O)cc1 (configuration not stated)",
    "target entity": "NCI/ADR-RES ovarian",
    "unit descriptor": "%",
    "growth": 11.7
  },
  {
    "compound": "N#CC(=S)Nc1ccc(Cl)c(Cl)c1",
    "target entity": "NCI/ADR-RES ovarian",
    "unit descriptor": "%",
    "growth": 7.44
  },
  {
    "compound": "COc1cc2c(cc1O)C(=O)CCCC2",
    "target entity": "NCI/ADR-RES ovarian",
    "unit descriptor": "%",
    "growth": 94.5
  },
  {
    "compound": "CCC/C(=N/NC(N)=O)c1ccco1",
    "target entity": "NCI/ADR-RES ovarian",
    "unit descriptor": "%",
    "growth": 100
  }
]

Here are 7 compounds. What values of growth were reported for them?
1. COC(=O)c1ccccc1Cl
2. CC1NC(C)c2ccc3ccccc3c2O1 (configuration not stated)
3. CC(=O)Oc1cc(C)c(OC(C)=O)c(C)c1C
4. CCN(CC)CCO/N=C1\CC(c2ccc(OC)c(OC)c2)Oc2ccccc21 (configuration not stated)
5. Clc1ccc2sc(-c3ccccc3)nc2c1
6. CC(=O)c1cccc(OC(=O)c2ccccc2)c1
7. O=C(c1ccc(Cl)cc1)C1C(c2ccccc2)C1[N+](=O)[O-] (configuration not stated)

1. 109
2. 105
3. 95.2
4. 89.6
5. 100
6. 96
7. 99.7

Hello, the source for this data is PubChem BioAssay (NCI), in case you need it.
